System under test: recombinant human integrin αvβ6 (Homo sapiens (Human), UniProt P06756+P18564)
Sequence (P06756 31-992): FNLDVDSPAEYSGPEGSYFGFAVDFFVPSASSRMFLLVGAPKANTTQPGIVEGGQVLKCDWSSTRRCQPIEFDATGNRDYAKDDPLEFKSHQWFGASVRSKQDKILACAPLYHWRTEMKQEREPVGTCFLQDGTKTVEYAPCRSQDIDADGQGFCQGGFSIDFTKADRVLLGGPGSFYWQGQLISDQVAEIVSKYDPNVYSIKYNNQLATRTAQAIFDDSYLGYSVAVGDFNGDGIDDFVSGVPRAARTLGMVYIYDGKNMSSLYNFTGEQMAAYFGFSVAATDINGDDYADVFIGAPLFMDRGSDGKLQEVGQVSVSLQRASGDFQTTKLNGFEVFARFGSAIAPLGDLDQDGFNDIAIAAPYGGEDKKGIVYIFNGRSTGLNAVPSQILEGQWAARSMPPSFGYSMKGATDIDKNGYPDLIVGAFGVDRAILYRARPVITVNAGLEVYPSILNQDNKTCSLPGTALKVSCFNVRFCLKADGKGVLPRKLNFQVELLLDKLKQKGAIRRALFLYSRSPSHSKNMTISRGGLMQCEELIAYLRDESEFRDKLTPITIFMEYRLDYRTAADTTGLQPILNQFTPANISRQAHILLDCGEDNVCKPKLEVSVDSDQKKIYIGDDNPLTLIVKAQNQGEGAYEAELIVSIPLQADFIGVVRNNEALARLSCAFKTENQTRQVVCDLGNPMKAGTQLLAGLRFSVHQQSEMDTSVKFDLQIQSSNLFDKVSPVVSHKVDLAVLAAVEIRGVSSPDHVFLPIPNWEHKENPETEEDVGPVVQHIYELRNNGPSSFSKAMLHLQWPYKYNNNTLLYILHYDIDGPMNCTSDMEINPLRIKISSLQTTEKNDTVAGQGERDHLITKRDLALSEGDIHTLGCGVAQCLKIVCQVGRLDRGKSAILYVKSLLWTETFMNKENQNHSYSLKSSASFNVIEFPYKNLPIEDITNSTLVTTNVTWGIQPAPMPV
Sequence (P18564 22-707): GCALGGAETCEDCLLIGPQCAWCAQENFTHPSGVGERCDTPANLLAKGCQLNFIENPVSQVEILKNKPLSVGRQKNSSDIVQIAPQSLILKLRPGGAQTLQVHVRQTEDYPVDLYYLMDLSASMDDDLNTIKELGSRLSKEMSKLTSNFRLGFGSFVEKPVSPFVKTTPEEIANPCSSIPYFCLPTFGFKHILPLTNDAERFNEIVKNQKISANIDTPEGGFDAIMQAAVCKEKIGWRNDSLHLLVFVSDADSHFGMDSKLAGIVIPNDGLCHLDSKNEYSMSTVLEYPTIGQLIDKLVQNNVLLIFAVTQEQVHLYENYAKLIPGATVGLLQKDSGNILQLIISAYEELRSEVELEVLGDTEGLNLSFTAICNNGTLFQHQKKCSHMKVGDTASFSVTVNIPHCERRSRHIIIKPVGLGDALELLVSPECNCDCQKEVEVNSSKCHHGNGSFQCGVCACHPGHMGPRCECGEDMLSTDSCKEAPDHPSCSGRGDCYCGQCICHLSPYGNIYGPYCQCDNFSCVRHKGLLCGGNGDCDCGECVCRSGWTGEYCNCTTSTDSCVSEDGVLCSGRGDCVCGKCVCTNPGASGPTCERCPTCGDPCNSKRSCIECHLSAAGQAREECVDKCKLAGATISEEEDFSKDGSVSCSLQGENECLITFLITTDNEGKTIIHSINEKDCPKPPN
Assay: Solid Phase Integrin αvβ6 Binding Assay (Examples B1, B2)
Test settings: TGFβ1 LAP ligand, values given in four ranges, read-out: αvβ6 Inhibition IC50 (nM)-range
Description: Microplates were coated with recombinant human integrin αvβ6 (2 μg/mL) in PBS (100 μL/well 25° C., overnight). The coating solution was removed, washed with wash buffer (0.05% Tween 20; 0.5 mM MnCl2; in 1×TBS). The plate was blocked with 200 μL/well of Block Buffer (1% BSA; 5% sucrose; 0.5 mM MnCl2; in 1×TBS) at 37° C. for 2 h. […] Bound antibody was detected by peroxidase-conjugated streptavidin. The IC50 values for testing compounds were calculated by four-parameter logistic regression. […]
Overview of recorded IC50 for various compounds

- Compound: "Cc1ccc(OCCN(CCCCc2ccc3c(n2)NCCC3)CC[C@H](Nc2ncnc3cccnc23)C(=O)O)cn1 [Compound 57]"
  System under test: "recombinant human integrin αvβ6 (Homo sapiens (Human), UniProt P06756+P18564)"
  IC50: "< 50 nM"
- Compound: "O=C(O)[C@H](CCN(CCCCc1ccc2c(n1)NCCC2)CCC(F)F)Nc1ncnc2ccccc12 [Compound 29]"
  System under test: "recombinant human integrin αvβ6 (Homo sapiens (Human), UniProt P06756+P18564)"
  IC50: "< 50 nM"
- Compound: "Cn1ncc2c(N[C@@H](CCN(CCCF)CCCCc3ccc4c(n3)NCCC4)C(=O)O)ncnc21 [Compound 136]"
  System under test: "recombinant human integrin αvβ6 (Homo sapiens (Human), UniProt P06756+P18564)"
  IC50: "< 50 nM"
- Compound: "O=C(O)[C@H](CCN(CCCCc1ccc2c(n1)NCCC2)CCOc1cncc(F)c1)Nc1ncnc2ccccc12 [Compound 58]"
  System under test: "recombinant human integrin αvβ6 (Homo sapiens (Human), UniProt P06756+P18564)"
  IC50: "< 50 nM"
- Compound: "CO[C@H](C)CN(CCCCc1ccc2c(n1)NCCC2)CC[C@H](Nc1ccncn1)C(=O)O [Compound 106]"
  System under test: "recombinant human integrin αvβ6 (Homo sapiens (Human), UniProt P06756+P18564)"
  IC50: "< 50 nM"
- Compound: "Cn1ncc2c(N[C@@H](CCN(CCCCc3ccc4c(n3)NCCC4)CC(F)F)C(=O)O)ncnc21 [Compound 88]"
  System under test: "recombinant human integrin αvβ6 (Homo sapiens (Human), UniProt P06756+P18564)"
  IC50: "> 1000 nM"
- Compound: "CO[C@H](C)CN(CCCCc1ccc2c(n1)NCCC2)CC[C@H](Nc1ncc(F)cn1)C(=O)O [Compound 78]"
  System under test: "recombinant human integrin αvβ6 (Homo sapiens (Human), UniProt P06756+P18564)"
  IC50: "< 50 nM"
- Compound: "COC[C@@H](F)CN(CCCCc1ccc2c(n1)NCCC2)CC[C@H](Nc1nc(C)nc2ccccc12)C(=O)O [Compound 46]"
  System under test: "recombinant human integrin αvβ6 (Homo sapiens (Human), UniProt P06756+P18564)"
  IC50: "< 50 nM"
- Compound: "N#Cc1cnc(N[C@@H](CCN(CCCCc2ccc3c(n2)NCCC3)CC(F)F)C(=O)O)nc1 [Compound 118]"
  System under test: "recombinant human integrin αvβ6 (Homo sapiens (Human), UniProt P06756+P18564)"
  IC50: "> 1000 nM"
- Compound: "CN(C)C(=O)CN(CCCCc1ccc2c(n1)NCCC2)CC[C@H](Nc1ncnc2c1cnn2C)C(=O)O [Compound 140]"
  System under test: "recombinant human integrin αvβ6 (Homo sapiens (Human), UniProt P06756+P18564)"
  IC50: "< 50 nM"
- Compound: "Cc1nc(N[C@@H](CCN(CCCCc2ccc3c(n2)NCCC3)CCOc2cncc(F)c2)C(=O)O)c2ccc(F)cc2n1 [Compound 61]"
  System under test: "recombinant human integrin αvβ6 (Homo sapiens (Human), UniProt P06756+P18564)"
  IC50: "< 50 nM"
- Compound: "CO[C@H](C)CN(CCCCc1ccc2c(n1)NCCC2)CC[C@H](Nc1nc(C)nc2cc(F)ccc12)C(=O)O [Compound 65]"
  System under test: "recombinant human integrin αvβ6 (Homo sapiens (Human), UniProt P06756+P18564)"
  IC50: "< 50 nM"
- Compound: "COCCN(CCCCc1ccc2c(n1)NCCC2)CC[C@H](Nc1cc(C)nc(C(F)(F)F)n1)C(=O)O [Compound 26]"
  System under test: "recombinant human integrin αvβ6 (Homo sapiens (Human), UniProt P06756+P18564)"
  IC50: "< 50 nM"
- Compound: "COCCN(CCCCc1ccc2c(n1)NCCC2)CC[C@H](Nc1ncnc2c(F)cccc12)C(=O)O [Compound 20]"
  System under test: "recombinant human integrin αvβ6 (Homo sapiens (Human), UniProt P06756+P18564)"
  IC50: "< 50 nM"
- Compound: "O=C(O)[C@H](CCN(CCCCc1ccc2c(n1)NCCC2)C1CC1)Nc1ncc(C(F)(F)F)cn1 [Compound 114]"
  System under test: "recombinant human integrin αvβ6 (Homo sapiens (Human), UniProt P06756+P18564)"
  IC50: "< 50 nM"
- Compound: "COCCN(CCCCc1ccc2c(n1)NCCC2)CC[C@H](Nc1nccc2ccccc12)C(=O)O [Compound 34]"
  System under test: "recombinant human integrin αvβ6 (Homo sapiens (Human), UniProt P06756+P18564)"
  IC50: "> 1000 nM"
- Compound: "CO[C@H](C)CN(CCCCc1ccc2c(n1)NCCC2)CC[C@H](Nc1ncnc2c1cnn2C)C(=O)O [Compound 74]"
  System under test: "recombinant human integrin αvβ6 (Homo sapiens (Human), UniProt P06756+P18564)"
  IC50: "< 50 nM"
